Task for the reader: assign each of the following compounds its reported TGI.
# System: MOLT-4 leukemia
# ASSAY REMARKS: NCI tumour cell line growth inhibition, 48 h

Lab note: measured TGI of CC(=O)Nc1ccc2c(c1)C(c1ccccc1Cl)=Nc1c(n[nH]c1C)N2 was > 25 µM

Lab note: measured TGI of CN(C)C=Nc1ccn(CCO)c(=O)n1 was > 100 µM

Lab note: measured TGI of N#CC12Cc3cc4c(cc3-c3cccc(c31)CCN2C(=O)c1ccccc1)OCO4 (centres undefined) was > 100 µM

Lab note: measured TGI of COc1cc(OC)c2c(c1)OC(c1ccccc1)CC2=O (centres undefined) was > 10 µM

Lab note: measured TGI of CCN1C(=S)N(c2ccccc2)C2NC(=S)N(/N=C/C=C/c3ccccc3OC)C21 (centres undefined) was > 100 µM

Lab note: measured TGI of COc1ccc(C(c2cc(OC)c(OC)c(OC)c2)n2ccnc2)cc1O (centres undefined) was > 100 µM

Lab note: measured TGI of O=Nc1ccc(O)c(=O)cc1 was 20.8 µM

Lab note: measured TGI of CC[C@H](C)[C@H]1NC(=O)[C@@H](NC(=O)[C@@H](CC(C)C)N(C)C(=O)C2CCCN2C(=O)[C@H](C)O)[C@@H](C)OC(=O)[C@H](Cc2ccc(OC)cc2)N(C)C(=O)[C@@H]2CCCN2C(=O)[C@H](CCCCNC(=O)OCc2ccccc2)NC(=O)[C@H](C)C(=O)[C@H](C(C)C)OC(=O)C[C@@H]1O (some centres undefined) was > 25 µM

Lab note: measured TGI of CC(C)OC(=O)c1ccc(CCC2=CC(=O)C=CC2=O)cc1 was 8.05 µM
